- experimental_system: GlcNAc(b1-2)Man(a1-3)[GlcNAc(b1-2)Man(a1-6)]Man(b1-4)GlcNAc(b1-4)[Fuc(a1-6)]GlcNAc
- assay_info: glycan array binding signal (z-score within array); higher = stronger binding
- study_conditions: glycan notation: IUPAC condensed, linker removed
The sample as a whole holds a higher share of the strongest signals than the screen did.
reported_metric: glycan array binding signal (z-score)
Number only, please.

CD72 ectodomain (Homo sapiens), P21854 (protein) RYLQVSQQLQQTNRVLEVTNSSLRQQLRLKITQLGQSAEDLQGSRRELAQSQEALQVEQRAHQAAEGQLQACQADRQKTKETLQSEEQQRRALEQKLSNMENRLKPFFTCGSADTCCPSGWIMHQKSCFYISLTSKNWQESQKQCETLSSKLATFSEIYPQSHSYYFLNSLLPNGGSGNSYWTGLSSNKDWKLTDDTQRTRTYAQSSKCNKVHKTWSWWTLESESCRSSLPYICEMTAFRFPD
2.59
pTFF2 (Sus scrofa), P01359 (protein) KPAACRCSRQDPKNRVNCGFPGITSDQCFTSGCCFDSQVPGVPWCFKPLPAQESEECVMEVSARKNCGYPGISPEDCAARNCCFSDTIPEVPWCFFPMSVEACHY
-1.4

Continue with the next binder.
Which glycan array binding signal (z-score) is reported for this binder? EUL D1A first (Oryza sativa) (protein) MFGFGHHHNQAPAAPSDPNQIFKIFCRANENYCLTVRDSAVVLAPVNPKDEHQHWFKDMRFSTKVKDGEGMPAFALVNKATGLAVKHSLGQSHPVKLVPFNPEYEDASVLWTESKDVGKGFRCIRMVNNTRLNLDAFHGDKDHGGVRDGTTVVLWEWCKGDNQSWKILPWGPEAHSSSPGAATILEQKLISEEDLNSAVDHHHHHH
3.11

Attribution: the supplement of paper PMC8728848
